Test system: 186277-243-T-J2-PDC spheroids with HUVEC/MSC, viability;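 further: compound exposure lasted seven days before readout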
Assay: Anticancer human tumor 186277-243-T-J2-PDC patient-derived colon adenocarcinoma cell line growth inhibition [CLK]
Conditions: curve of first compound; second compound 0.0316 µM
Entries and their IC50
Just the number in nM, nothing appended.

Below, each entry is followed by its recorded IC50 result.
{"COMPOUND": "CC(Nc1ccc2c(c1)OCCn1cc(N3C(=O)OCC3C(F)F)nc1-2)C(N)=O (stereo not given) + CN1CCN(c2cc(C(=O)Nc3cc4cc(-c5cnn(C)c5)ccc4cn3)ccn2)CC1", "REPORTED VALUE": 828}
{"COMPOUND": "CC(=O)O[C@H]1C(=O)[C@@]2(C)[C@H]([C@H](OC(=O)c3ccccc3)[C@]3(O)C[C@H](OC(=O)[C@H](O)[C@@H](NC(=O)c4ccccc4)c4ccccc4)C(C)=C1C3(C)C)[C@]1(OC(C)=O)CO[C@@H]1C[C@@H]2O + CNC(=O)c1ccc(Nc2nc(OC3CCCC3)c3c(-c4ccc5nc(C)oc5c4)c[nH]c3n2)c(OC)c1", "REPORTED VALUE": 260}
{"COMPOUND": "Nc1ccccc1NC(=O)c1ccc(CNC(=O)OCc2cccnc2)cc1 + CNC(=O)c1ccc(Nc2nc(OC3CCCC3)c3c(-c4ccc5nc(C)oc5c4)c[nH]c3n2)c(OC)c1", "REPORTED VALUE": 3050}
{"COMPOUND": "C#Cc1c(F)ccc2cc(O)cc(-c3ncc4c(N5CC6CCC(C5)N6)nc(OCC56CCCN5CC(F)C6)nc4c3F)c12 (stereo not given) + CNC(=O)c1ccc(Nc2nc(OC3CCCC3)c3c(-c4ccc5nc(C)oc5c4)c[nH]c3n2)c(OC)c1", "REPORTED VALUE": 244}
{"COMPOUND": "CC1(C)CCC(CN2CCN(c3ccc(C(=O)NS(=O)(=O)c4ccc(NCC5CCOCC5)c([N+](=O)[O-])c4)c(Oc4cnc5[nH]ccc5c4)c3)CC2)=C(c2ccc(Cl)cc2)C1 + CNC(=O)c1ccc(Nc2nc(OC3CCCC3)c3c(-c4ccc5nc(C)oc5c4)c[nH]c3n2)c(OC)c1", "REPORTED VALUE": 6100}

Record CCc1c2c(nc3ccc(O)cc13)-c1cc3c(c(=O)n1C2)COC(=O)[C@]3(O)CC + CN1CCN(c2cc(C(=O)Nc3cc4cc(-c5cnn(C)c5)ccc4cn3)ccn2)CC1 , field IC50: 22.6

Record CC1COCCN1c1cc(C2(S(C)(=N)=O)CC2)nc(-c2ccnc3[nH]ccc23)n1 (stereo not given) + CNC(=O)c1ccc(Nc2nc(OC3CCCC3)c3c(-c4ccc5nc(C)oc5c4)c[nH]c3n2)c(OC)c1 , field IC50: 2510

Record C=C(F)C(=O)N1CCN(c2nc(OCC3CCCN3C)nc3c2CCN(c2cccc4cccc(Cl)c24)C3)CC1CC#N (stereo not given) + CNC(=O)c1ccc(Nc2nc(OC3CCCC3)c3c(-c4ccc5nc(C)oc5c4)c[nH]c3n2)c(OC)c1 , field IC50: 5730

Record COc1cccc2c1C(=O)c1c(O)c3c(c(O)c1C2=O)CC(O)(C(=O)CO)CC3OC1CC(N)C(O)C(C)O1 (stereo not given) + CNC(=O)c1ccc(Nc2nc(OC3CCCC3)c3c(-c4ccc5nc(C)oc5c4)c[nH]c3n2)c(OC)c1 , field IC50: 161

Record COc1c(OCCCN2CCOCC2)ccc2c3n(c(=NC(=O)c4cnc(N)nc4)nc12)CCN3 + CN1CCN(c2cc(C(=O)Nc3cc4cc(-c5cnn(C)c5)ccc4cn3)ccn2)CC1 , field IC50: 27

Record CC1COCCN1c1cc(C2(S(C)(=N)=O)CC2)nc(-c2ccnc3[nH]ccc23)n1 (stereo not given) + CN1CCN(c2cc(C(=O)Nc3cc4cc(-c5cnn(C)c5)ccc4cn3)ccn2)CC1 , field IC50: 2250

Record COC1C=CCC(C)C(C)S(=O)(=O)NC(=O)c2ccc3c(c2)N(CC2CCC21)CC1(CCCc2cc(Cl)ccc21)CO3 (stereo not given) + CN1CCN(c2cc(C(=O)Nc3cc4cc(-c5cnn(C)c5)ccc4cn3)ccn2)CC1 , field IC50: 4120

Record CC1(C)CCC(CN2CCN(c3ccc(C(=O)NS(=O)(=O)c4ccc(NCC5CCOCC5)c([N+](=O)[O-])c4)c(Oc4cnc5[nH]ccc5c4)c3)CC2)=C(c2ccc(Cl)cc2)C1 + CN1CCN(c2cc(C(=O)Nc3cc4cc(-c5cnn(C)c5)ccc4cn3)ccn2)CC1 , field IC50: 5780
